system: Plasma; test: Ratio of plasma concentration Lewis rat at 1 mg/kg, po after 4 hrs to plasma concentration Lewis rat at 1 mg/kg, po after 24 hrs; type: ADME, organism-based; details: in vivo
Test Readout: Ratio

(1) O=C(O)C1CN(Cc2ccc(-c3noc(-c4onc(-c5ccccn5)c4C(F)(F)F)n3)cc2)C1
(2) CCCc1c(-c2ccccn2)noc1-c1nc(-c2ccc(CN3CC(C(=O)O)C3)cc2)no1
(3) CC(C)c1c(-c2nc(-c3ccc(CN4CC(C(=O)O)C4)cc3)no2)noc1-c1ccccn1
(4) O=C(O)C1CN(Cc2ccc(-c3noc(-c4onc(-c5ccccc5)c4C(F)(F)F)n3)cc2)C1
Prompt: Give the ascending ranking of the items by reported Ratio. Please list the labels in the order you were asked to rank them.
Response: 4, 2, 3, 1

(a) CCc1c(-c2nc(-c3ccc(CN4CC(C(=O)O)C4)cc3)no2)noc1-c1ccccn1
(b) CCCc1c(-c2nc(-c3ccc(CN4CC(C(=O)O)C4)cc3)no2)noc1-c1ccccn1
Prompt: # return whichever of a and b has the smaller Ratio Write the label of whichever entry you select.
Response: a
(a: 15, b: 30)
